Target: T1, human DLL4, full length, on cells (human, UniProt Q9NR61 27-685)
T1 construct: also called huDLL4 cells; human DLL4-293G
T1 sequence (Q9NR61 27-685 limits assumed): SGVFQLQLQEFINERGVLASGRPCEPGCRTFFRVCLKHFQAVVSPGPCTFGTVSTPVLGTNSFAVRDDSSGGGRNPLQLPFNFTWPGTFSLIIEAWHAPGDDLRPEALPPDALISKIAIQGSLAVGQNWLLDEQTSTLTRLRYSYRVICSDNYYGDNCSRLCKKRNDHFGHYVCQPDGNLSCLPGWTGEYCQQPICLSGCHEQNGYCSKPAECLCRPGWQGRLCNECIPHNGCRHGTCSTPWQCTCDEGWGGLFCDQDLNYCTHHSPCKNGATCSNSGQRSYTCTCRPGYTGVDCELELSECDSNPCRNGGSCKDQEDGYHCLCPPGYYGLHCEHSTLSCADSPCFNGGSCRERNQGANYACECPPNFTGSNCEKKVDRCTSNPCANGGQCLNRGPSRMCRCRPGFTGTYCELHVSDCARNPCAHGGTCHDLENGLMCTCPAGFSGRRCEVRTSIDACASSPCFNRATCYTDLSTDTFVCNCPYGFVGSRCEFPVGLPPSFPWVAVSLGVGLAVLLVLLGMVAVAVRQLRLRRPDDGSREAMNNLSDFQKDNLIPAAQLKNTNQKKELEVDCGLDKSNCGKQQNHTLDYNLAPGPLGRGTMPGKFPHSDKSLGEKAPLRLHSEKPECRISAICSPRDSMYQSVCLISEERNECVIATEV
Test: FACS, DLL4 cells
pEC50: −log10 of the molar value.

# binder, pEC50
data = [
    ("h1A11.4 (antibody, V domains shown, humanized IgG; also called VH.1/VL.2a 1A11) VH: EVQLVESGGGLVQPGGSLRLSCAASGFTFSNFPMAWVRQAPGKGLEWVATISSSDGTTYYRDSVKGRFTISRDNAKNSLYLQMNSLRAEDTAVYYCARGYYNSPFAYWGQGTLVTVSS VL: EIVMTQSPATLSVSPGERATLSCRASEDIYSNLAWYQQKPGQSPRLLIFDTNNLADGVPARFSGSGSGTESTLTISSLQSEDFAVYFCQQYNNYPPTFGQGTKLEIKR", 8.44),
]
